method: Metabolic stability in human hepatic microsomes after 20 mins by HPLC/MS analysis
Assay type: ADME
details: liver microsomes, read-out: Stability
measured.metric: microsomal CLint
Your answer should be a number followed by the unit of measure.

Query: State its microsomal CLint for this compound: CCOC(=O)c1ccc(C(CC)(CC)NC(=O)c2cnn3c2NC(c2ccccc2)CC3(C)C)cc1 (stereo not drawn)
Reply: 91 µL/min/mg

Query: State its microsomal CLint for this compound: CCC(CC)(NC(=O)c1cnn2c1NC(c1ccccc1)CC2(C)C)c1ccc(Cl)cc1 (stereo not drawn)
Reply: 18 µL/min/mg

Query: State its microsomal CLint for this compound: CCC(CC)(NC(=O)c1cnn2c1NC(c1ccccc1)CC2(C)C)c1ccc(C)cc1 (stereo not drawn)
Reply: 122 µL/min/mg

Query: State its microsomal CLint for this compound: CCC(CC)(NC(=O)c1cnn2c1NC(c1ccccc1)CC2(C)C)c1ccccc1 (stereo not drawn)
Reply: 209 µL/min/mg

Query: State its microsomal CLint for this compound: CCC(CC)(NC(=O)c1cnn2c1NC(c1ccccc1)CC2(C)C)c1ccc(OCc2ccccc2)cc1 (stereo not drawn)
Reply: 48 µL/min/mg

Query: State its microsomal CLint for this compound: CCC(CC)(NC(=O)c1cnn2c1NC(c1ccccc1)CC2(C)C)c1ccc(C(F)(F)F)cc1 (stereo not drawn)
Reply: 14 µL/min/mg

Query: State its microsomal CLint for this compound: CCC(CC)(NC(=O)c1cnn2c1NC(c1ccccc1)CC2(C)C)c1ccc(F)cc1 (stereo not drawn)
Reply: 89 µL/min/mg

Query: State its microsomal CLint for this compound: CCC(CC)(NC(=O)c1cnn2c1NC(c1ccccc1)CC2(C)C)c1ccc(OC)cc1 (stereo not drawn)
Reply: 67 µL/min/mg

====

study.target: Extracellular calcium-sensing receptor (Homo sapiens)
Sequence (P41180 whole entry): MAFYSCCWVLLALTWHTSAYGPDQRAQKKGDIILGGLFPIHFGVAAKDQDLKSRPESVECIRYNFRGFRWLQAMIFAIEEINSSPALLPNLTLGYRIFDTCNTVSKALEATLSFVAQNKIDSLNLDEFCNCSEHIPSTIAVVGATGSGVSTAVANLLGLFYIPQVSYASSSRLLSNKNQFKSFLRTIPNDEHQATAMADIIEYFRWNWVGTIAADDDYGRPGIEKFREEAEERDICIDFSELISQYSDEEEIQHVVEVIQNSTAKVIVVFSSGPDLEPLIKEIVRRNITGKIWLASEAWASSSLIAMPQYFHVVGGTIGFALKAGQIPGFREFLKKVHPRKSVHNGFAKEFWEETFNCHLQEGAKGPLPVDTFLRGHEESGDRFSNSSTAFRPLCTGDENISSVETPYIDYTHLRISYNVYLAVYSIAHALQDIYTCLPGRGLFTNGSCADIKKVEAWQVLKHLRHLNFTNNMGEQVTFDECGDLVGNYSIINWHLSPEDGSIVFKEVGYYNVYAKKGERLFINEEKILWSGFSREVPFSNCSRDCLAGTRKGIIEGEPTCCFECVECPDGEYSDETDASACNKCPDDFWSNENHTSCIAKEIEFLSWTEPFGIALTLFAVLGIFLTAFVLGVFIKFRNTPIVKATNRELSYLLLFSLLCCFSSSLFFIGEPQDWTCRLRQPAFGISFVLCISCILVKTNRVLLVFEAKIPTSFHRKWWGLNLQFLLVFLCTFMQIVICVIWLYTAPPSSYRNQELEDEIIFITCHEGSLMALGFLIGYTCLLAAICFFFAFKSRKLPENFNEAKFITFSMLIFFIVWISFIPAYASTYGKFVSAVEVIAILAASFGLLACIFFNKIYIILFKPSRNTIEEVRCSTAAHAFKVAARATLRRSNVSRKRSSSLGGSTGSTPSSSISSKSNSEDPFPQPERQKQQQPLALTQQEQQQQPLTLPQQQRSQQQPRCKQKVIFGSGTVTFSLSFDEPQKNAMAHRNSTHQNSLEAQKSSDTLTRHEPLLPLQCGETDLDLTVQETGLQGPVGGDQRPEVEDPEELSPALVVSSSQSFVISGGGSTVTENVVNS
method: Inhibition of CaSR expressed in CHO cells incubated with compound for 10 mins measured after 1 hr by [35S]GTPgammaS binding assay
measured.metric: log10(IC50) (log10 of the value in nM)
Plainly stated, the numbers are log10 of IC50 given in nM.

Query: State its log10(IC50) for this molecule: CC(C)C(NC(=O)c1cnn2c1NC(c1ccccc1)CC2(C)C)(c1ccc(C(F)(F)F)cc1)C(C)C (stereo not given)
Reply: 1.48

Query: State its log10(IC50) for this molecule: CCOC(=O)c1ccc(C(CC)(CC)NC(=O)c2cnn3c2NC(c2ccccc2)CC3(C)C)cc1 (stereo not given)
Reply: 0.72

Query: State its log10(IC50) for this molecule: CCC(CC)(NC(=O)c1cnn2c1NC(c1ccccc1)CC2(C)C)c1ccc(C)cc1.Cl (racemic)
Reply: 0.69

Query: State its log10(IC50) for this molecule: CCC(CC)(NC(=O)c1cnn2c1NC(c1ccccc1)CC2(C)C)c1ccc(COC(C)=O)cc1 (stereo not given)
Reply: 1.15

Query: State its log10(IC50) for this molecule: CCCCC(CCCC)(NC(=O)c1cnn2c1NC(c1ccccc1)CC2(C)C)c1ccc(C(F)(F)F)cc1 (stereo not given)
Reply: 1.36

Query: State its log10(IC50) for this molecule: CC(C)(NC(=O)c1cnn2c1NC(c1ccccc1)CC2(C)C)c1ccc(C(F)(F)F)cc1 (stereo not given)
Reply: 0.54

Query: State its log10(IC50) for this molecule: CCC(CC)(NC(=O)c1cnn2c1NC(c1ccccc1)CC2(C)C)c1ccc(C)cc1 (stereo not given)
Reply: 0.74

Query: State its log10(IC50) for this molecule: CCC(CC)(NC(=O)c1cnn2c1N[C@@H](c1ccccc1)CC2(C)C)c1ccc(C)cc1
Reply: 0.36

Query: State its log10(IC50) for this molecule: O=C(NC(c1ccccc1)c1ccccc1)c1cnn2c1N[C@H](c1ccccc1)C[C@@H]2C(F)(F)F
Reply: 2.58

Query: State its log10(IC50) for this molecule: CCC(CC)(NC(=O)c1cnn2c1NC(c1ccccc1)CC2(C)C)c1cccc(Cl)c1 (stereo not given)
Reply: 1.23

Query: State its log10(IC50) for this molecule: CC1(C)CC(c2ccccc2)Nc2c(C(=O)NC(c3ccc(C(F)(F)F)cc3)(C3CCCCC3)C3CCCCC3)cnn21 (stereo not given)
Reply: 2.18

Query: State its log10(IC50) for this molecule: CCC(CC)(NC(=O)c1cnn2c1NC(c1ccccc1)CC2(C)C)c1ccc(Cl)cc1 (stereo not given)
Reply: 0.87

Query: State its log10(IC50) for this molecule: CCC(CC)(NC(=O)c1cnn2c1NC(c1ccccc1)CC2(C)C)c1ccc(OC)cc1 (stereo not given)
Reply: 0.82

Query: State its log10(IC50) for this molecule: CCC(CC)(NC(=O)c1cnn2c1NC(c1ccccc1)CC2(C)C)c1ccc(C(F)(F)F)cc1 (stereo not given)
Reply: 0.88

Query: State its log10(IC50) for this molecule: O=C(NCc1ccc(C(F)(F)F)cc1)c1cnn2c1N[C@H](c1ccccc1)C[C@@H]2C(F)(F)F
Reply: 3.46
